Origin of values: the supplement of paper PMC9233669

Tested on: biotinyl-Trp-oxazolone
Assay: self-aminoacylation, catalytic enhancement (BWO) (fold over background); higher = more active; k-Seq, kA / k0A0; sequences stand for … in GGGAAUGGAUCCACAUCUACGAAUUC…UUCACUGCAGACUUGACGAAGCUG
Fewer inactive variants are shown than the library holds.
self-aminoacylation values for the sequences below.
Enter the number alone.

Record sequence | self-aminoacylation
AUUACACUGGACAUCGAGUGA [Fam2.1 aminoacylation ribozyme variant] | 6.45
ACCCACCUAGGUCAUCGGGUG [Fam2.2 aminoacylation ribozyme variant] | 6.03
AUGCACCUAGGUCUUCGGGUG [Fam2.2 aminoacylation ribozyme variant] | 5.59
UUUAACCUAGGUCAUCGGGUG [Fam2.2 aminoacylation ribozyme variant] | 7.19

Memo: AUUACACUGGUCAUUGAGUGA [Fam2.1 aminoacylation ribozyme variant] , reported self-aminoacylation: 7.64

Memo: AAGGUCGCUAAUAGUCGCAAG [Fam3.1 aminoacylation ribozyme variant] , reported self-aminoacylation: 2.4

Memo: CCACACUUUAAGCAAUCGCUC [Fam1B.1 aminoacylation ribozyme variant] , reported self-aminoacylation: 1.2

Memo: AUGCUUGCUAAUAGUCGCAAG [Fam3.1 aminoacylation ribozyme variant] , reported self-aminoacylation: 1.99

----------
Test system: biotinyl-Val-oxazolone
Assay: self-aminoacylation, catalytic enhancement (BVO) (fold over background); higher = more active; k-Seq, kA / k0A0; sequences stand for … in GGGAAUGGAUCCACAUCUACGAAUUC…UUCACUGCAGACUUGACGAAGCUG
This sample holds only a part of the variants without activity.
Outcome label depends on self-aminoacylation relative to 1: at/above gives Yes, below gives No.

Record sequence | Label
AUUACCCUGGUUAUCGUGUGA [Fam2.1 aminoacylation ribozyme variant] | Yes
AUGCACCUAGGUCUUCGGGUG [Fam2.2 aminoacylation ribozyme variant] | Yes
AUUACCCUGGUCAACGAGUUA [Fam2.1 aminoacylation ribozyme variant] | No
AUUCACCUUGGUCAUCGGUUG [Fam2.2 aminoacylation ribozyme variant] | Yes
AAGUGUGCUAAUUGUCGCAAG [Fam3.1 aminoacylation ribozyme variant] | Yes

[in] Can AAGUUGGCUAAUAGUCGCAAU [Fam3.1 aminoacylation ribozyme variant] be said to have self-aminoacylation at or above 1?
[out] Yes

[in] Can AAGUUUGCUUAUAGUCUCAAG [Fam3.1 aminoacylation ribozyme variant] be said to have self-aminoacylation at or above 1?
[out] No

[in] Can AUUACCCUGGUCAUCGUGAGA [Fam2.1 aminoacylation ribozyme variant] be said to have self-aminoacylation at or above 1?
[out] No

[in] Can CCACACUACAAGCAAUCUGUC [Fam1B.1 aminoacylation ribozyme variant] be said to have self-aminoacylation at or above 1?
[out] No

----------
Test system: biotinyl-Leu-oxazolone
Test: self-aminoacylation, catalytic enhancement (BLO) (fold over background); higher = more active; k-Seq, kA / k0A0; sequences stand for … in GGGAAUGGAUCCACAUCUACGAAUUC…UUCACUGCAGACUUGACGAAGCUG
Fewer inactive variants are shown than the library holds.
self-aminoacylation values for the sequences below.
Enter the number alone.

Memo: AUUCACCUAGGUCAGCGGGUG [Fam2.2 aminoacylation ribozyme variant] , reported self-aminoacylation: 5.95

Memo: ACGUGUGCUAAUAGUCGCAAG [Fam3.1 aminoacylation ribozyme variant] , reported self-aminoacylation: 1.68

Memo: CCACACUUCAAGCAACCCGUC [Fam1B.1 aminoacylation ribozyme variant] , reported self-aminoacylation: 0.763

Memo: CCACUCUUCAAGAAAUCGGUC [Fam1B.1 aminoacylation ribozyme variant] , reported self-aminoacylation: 0.903

----------
Test system: biotinyl-Phe-oxazolone
Test: self-aminoacylation, catalytic enhancement (BFO) (fold over background); higher = more active; k-Seq, kA / k0A0; sequences stand for … in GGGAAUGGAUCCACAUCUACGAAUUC…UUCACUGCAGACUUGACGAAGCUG
This sample holds only a part of the variants without activity.
Quantity kind: self-aminoacylation
Enter the number alone.

Record sequence | Quantity kind | Assay value
CUACUUCAAAAAAGCGGUCUG [Fam1A.1 aminoacylation ribozyme variant] | self-aminoacylation | 0.451
AUUCACCUAAGUCGUCGGGUG [Fam2.2 aminoacylation ribozyme variant] | self-aminoacylation | 10.1
AUUCGCCUAGGUCGUCGGGUG [Fam2.2 aminoacylation ribozyme variant] | self-aminoacylation | 11.6
ACGUUUGCUAAUGGUCGCAAG [Fam3.1 aminoacylation ribozyme variant] | self-aminoacylation | 3.94
AAGUUGGCUAAUAUUCGCAAG [Fam3.1 aminoacylation ribozyme variant] | self-aminoacylation | 2.07

Memo: AUUACCUUGGUCAACGAGUGA [Fam2.1 aminoacylation ribozyme variant] , reported self-aminoacylation: 17.5

Memo: AUUCAACUAGGUCAUCCGGUG [Fam2.2 aminoacylation ribozyme variant] , reported self-aminoacylation: 45.8

Memo: AAACACUUCAAGCAAUCGGUC [Fam1B.1 aminoacylation ribozyme variant] , reported self-aminoacylation: 18

Memo: AUUACCCUGGUCAUGGGGUGA [Fam2.1 aminoacylation ribozyme variant] , reported self-aminoacylation: 66.9

Memo: AUUACCCCGGUCAACGAGUGA [Fam2.1 aminoacylation ribozyme variant] , reported self-aminoacylation: 28.2

Memo: AAAUUUGCUAAUAGUCACAAG [Fam3.1 aminoacylation ribozyme variant] , reported self-aminoacylation: 2.81

Memo: UUACUUCAAACAAUUGGUCUG [Fam1A.1 aminoacylation ribozyme variant] , reported self-aminoacylation: 1.76

Memo: AAGCUUGCUAUUAGUCGCAAG [Fam3.1 aminoacylation ribozyme variant] , reported self-aminoacylation: 2.62

Memo: CUACUUCAAUCAAUCUGUCUG [Fam1A.1 aminoacylation ribozyme variant] , reported self-aminoacylation: 1.25

Memo: AUUCACCGACGUCAUCGGGUG [Fam2.2 aminoacylation ribozyme variant] , reported self-aminoacylation: 55.1

----------
Tested on: biotinyl-Ile-oxazolone
Assay: self-aminoacylation, catalytic enhancement (BIO) (fold over background); higher = more active; k-Seq, kA / k0A0; sequences stand for … in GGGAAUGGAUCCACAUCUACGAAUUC…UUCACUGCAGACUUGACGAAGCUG
This sample holds only a part of the variants without activity.
Outcome label depends on self-aminoacylation relative to 2: at/above gives Satisfied, below gives Not satisfied.

Record sequence | Label
AAGCUUGCUUAUAGUCGCAAG [Fam3.1 aminoacylation ribozyme variant] | Satisfied
AUACUUCAAUCAAUCGGUCUG [Fam1A.1 aminoacylation ribozyme variant] | Not satisfied
GUUACCCUGAUCAUCGAGUGA [Fam2.1 aminoacylation ribozyme variant] | Satisfied
AUGACCCUGGUUAUCGAGUGA [Fam2.1 aminoacylation ribozyme variant] | Satisfied
AUUCACCUCGGUCGUCGGGUG [Fam2.2 aminoacylation ribozyme variant] | Satisfied

[in] Can AAGUUUGCUCAUACUCGCAAG [Fam3.1 aminoacylation ribozyme variant] be said to have self-aminoacylation at or above 2?
[out] Not satisfied

[in] Can AUACACCUAAGUCAUCGGGUG [Fam2.2 aminoacylation ribozyme variant] be said to have self-aminoacylation at or above 2?
[out] Satisfied

[in] Can AUUAUCCUGGUCAUCCAGUGA [Fam2.1 aminoacylation ribozyme variant] be said to have self-aminoacylation at or above 2?
[out] Satisfied

[in] Can CCACCGUUCAAGCAAUCGGUC [Fam1B.1 aminoacylation ribozyme variant] be said to have self-aminoacylation at or above 2?
[out] Not satisfied

[in] Can CUACUUCAAACAAACGGUCUU [Fam1A.1 aminoacylation ribozyme variant] be said to have self-aminoacylation at or above 2?
[out] Not satisfied

[in] Can AUUCACCUAGUUCAUCGAGUG [Fam2.2 aminoacylation ribozyme variant] be said to have self-aminoacylation at or above 2?
[out] Not satisfied

[in] Can AAUUUUGCUAAUCGUCGCAAG [Fam3.1 aminoacylation ribozyme variant] be said to have self-aminoacylation at or above 2?
[out] Not satisfied

[in] Can AUUAACCUGGUCAUCGUGUGA [Fam2.1 aminoacylation ribozyme variant] be said to have self-aminoacylation at or above 2?
[out] Not satisfied

[in] Can AUUCACCAAGGGCAUCGGGUG [Fam2.2 aminoacylation ribozyme variant] be said to have self-aminoacylation at or above 2?
[out] Satisfied

[in] Can AUAACCCUGGUCAUCGAGUGC [Fam2.1 aminoacylation ribozyme variant] be said to have self-aminoacylation at or above 2?
[out] Not satisfied

[in] Can AUCACCCUGGUCAUCGAAUGA [Fam2.1 aminoacylation ribozyme variant] be said to have self-aminoacylation at or above 2?
[out] Not satisfied

[in] Can CUACUUAAAACAGUCGGUCUG [Fam1A.1 aminoacylation ribozyme variant] be said to have self-aminoacylation at or above 2?
[out] Not satisfied

[in] Can AUUACCGUGGUCAUCGGGUGA [Fam2.1 aminoacylation ribozyme variant] be said to have self-aminoacylation at or above 2?
[out] Satisfied

[in] Can ACUACCCUGUUCAUCGAGUGA [Fam2.1 aminoacylation ribozyme variant] be said to have self-aminoacylation at or above 2?
[out] Satisfied

[in] Can CUACUUCAAACAACCGGUCCG [Fam1A.1 aminoacylation ribozyme variant] be said to have self-aminoacylation at or above 2?
[out] Not satisfied

[in] Can CAGUUUGCUAAUAGACGCAAG [Fam3.1 aminoacylation ribozyme variant] be said to have self-aminoacylation at or above 2?
[out] Not satisfied

[in] Can CUACUUCUAACAAUCGGUGUG [Fam1A.1 aminoacylation ribozyme variant] be said to have self-aminoacylation at or above 2?
[out] Not satisfied

[in] Can AUGCACAUAGGUCAUCGGGUG [Fam2.2 aminoacylation ribozyme variant] be said to have self-aminoacylation at or above 2?
[out] Satisfied

[in] Can CUACUACAAACAAGCGGUCUG [Fam1A.1 aminoacylation ribozyme variant] be said to have self-aminoacylation at or above 2?
[out] Not satisfied

[in] Can CGACACUUCCAGCAAUCGGUC [Fam1B.1 aminoacylation ribozyme variant] be said to have self-aminoacylation at or above 2?
[out] Not satisfied

[in] Can AAAUUUGCUAAUAGUCGCAAC [Fam3.1 aminoacylation ribozyme variant] be said to have self-aminoacylation at or above 2?
[out] Not satisfied

[in] Can CCACACUUCAAUCAAUCUGUC [Fam1B.1 aminoacylation ribozyme variant] be said to have self-aminoacylation at or above 2?
[out] Not satisfied

[in] Can AGUACCGUGGUCAUCGAGUGA [Fam2.1 aminoacylation ribozyme variant] be said to have self-aminoacylation at or above 2?
[out] Satisfied

[in] Can AAGUUUGCUAAUAGUAGCAAU [Fam3.1 aminoacylation ribozyme variant] be said to have self-aminoacylation at or above 2?
[out] Not satisfied

[in] Can CCACACUUCACGCAAUCGGCC [Fam1B.1 aminoacylation ribozyme variant] be said to have self-aminoacylation at or above 2?
[out] Satisfied
